# measuredOn: Muscarinic acetylcholine receptor M2 (Homo sapiens)
# Sequence (P08172 whole entry): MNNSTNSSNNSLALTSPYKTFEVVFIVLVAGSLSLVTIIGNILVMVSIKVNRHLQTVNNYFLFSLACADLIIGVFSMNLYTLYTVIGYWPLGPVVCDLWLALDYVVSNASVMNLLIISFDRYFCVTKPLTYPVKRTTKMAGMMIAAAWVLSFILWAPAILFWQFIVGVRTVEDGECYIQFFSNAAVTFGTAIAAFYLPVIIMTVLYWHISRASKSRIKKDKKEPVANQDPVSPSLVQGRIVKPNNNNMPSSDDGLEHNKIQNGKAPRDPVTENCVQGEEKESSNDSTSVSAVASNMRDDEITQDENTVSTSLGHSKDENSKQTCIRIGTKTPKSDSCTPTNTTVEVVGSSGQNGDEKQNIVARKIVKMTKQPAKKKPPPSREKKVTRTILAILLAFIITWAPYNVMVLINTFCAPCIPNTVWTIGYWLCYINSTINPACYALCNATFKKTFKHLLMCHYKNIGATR
# testDetails: Displacement of [3H]NMS from recombinant human muscarinic M2 receptor expressed in CHOK1 cell membranes after 120 mins by scintillation counting method
endpointName: pKi
Scale explanation: pKi corresponds to minus log10 of a concentration expressed in moles per litre.

- compound: "c1ccc(C2(c3ccccc3)COC[C@@H](CO[C@H]3CN4CCC3CC4)O2)cc1"
  result: 6.45
- compound: "c1ccc(C2(c3ccccc3)COC[C@H](CO[C@@H]3CN4CCC3CC4)O2)cc1"
  result: 7.48
- compound: "c1ccc(C2(c3ccccc3)COC[C@H](CO[C@H]3CN4CCC3CC4)O2)cc1"
  result: 7.24
- compound: "c1ccc(C2(c3ccccc3)COC[C@@H](CO[C@@H]3CN4CCC3CC4)O2)cc1"
  result: 7.21

// moving on: another record for pKi
Query block: Dear colleague, I am looking for the recorded pKi of the following compound: O=C(O[C@H]1CN2CCC1CC2)N1CCc2ccccc2[C@@H]1c1ccccc1 [SOLIFENACIN]
Result block: 6.92
